Hello, the source for this data is patent EP0502205A1, in case you need it.

test summary: Ultraviolet light absorption maximum and absorbance in ethanol solution
Assay type: physicochemical
condition label: concentration of 10 μg/ml in an ethanol solution; 300 nm
measurement type: Absorbance 300 nm

Here are 5 compounds together with their reported answers.
IN: I would be grateful if you could share the reported Absorbance 300 nm for O=C(/C=C/c1ccccc1F)c1ccc(O)cc1O .
OUT: 0.70~0.85

IN: Now consider O=C(/C=C/c1ccc([N+](=O)[O-])cc1)c1ccc(O)cc1O .
OUT: 0.60~0.75

IN: Now consider O=C(/C=C/c1ccccc1)c1ccc(O)cc1 .
OUT: 1.40~1.50

IN: Now consider CCOc1ccc(/C=C/C(=O)c2ccc(O)cc2O)cc1 .
OUT: 0.20~0.40

IN: Now consider O=C(/C=C/c1ccc(C(F)(F)F)cc1)c1ccc(O)cc1O .
OUT: 0.60~0.75

***
IN: I would be grateful if you could share the reported Absorbance 300 nm for O=C(/C=C/c1ccc2c(c1)OCO2)c1ccc(O)cc1 .
OUT: 0.30~0.45

IN: Now consider O=C(/C=C/c1cccc(F)c1)c1ccc(O)cc1 .
OUT: 0.90~1.00

IN: Now consider O=C(/C=C/c1ccc(O)c(O)c1)c1ccc(O)cc1 .
OUT: 0.35~0.50

IN: Now consider O=C(/C=C/c1ccccc1)c1ccc(O)cc1O [Example 14, 2',4'-dihydroxychalcone] .
OUT: 0.65~0.75

====

test summary: Ultraviolet light absorption maximum and absorbance in ethanol solution
Type: physicochemical
condition label: concentration of 10 μg/ml in an ethanol solution; at UVmax
measurement type: Absorbance UVmax

Here are 4 compounds together with their reported answers.
IN: I would be grateful if you could share the reported Absorbance UVmax for CCOc1ccc(/C=C/C(=O)c2ccc(O)cc2O)cc1 .
OUT: 0.80~0.95

IN: Now consider O=C(/C=C/c1cccc(F)c1)c1ccc(O)cc1 .
OUT: 0.90~1.20

IN: Now consider O=C(/C=C/c1ccc(O)c(O)c1)c1ccc(O)cc1 .
OUT: 1.00~1.15

IN: Now consider O=C(/C=C/c1ccc2c(c1)OCO2)c1ccc(O)cc1 .
OUT: 0.90~1.00

***
IN: I would be grateful if you could share the reported Absorbance UVmax for O=C(/C=C/c1ccc(Cl)cc1)c1ccc(O)cc1O .
OUT: 1.20~1.40

====

test summary: Ultraviolet light absorption maximum and absorbance in ethanol solution
Type: physicochemical
condition label: ultraviolet light absorption maximum
measurement type: UVmax (nm)
Entry rule: numbers only, all in nm.

Here are 9 compounds together with their reported answers.
IN: I would be grateful if you could share the reported UVmax for CCOc1ccc(/C=C/C(=O)c2ccc(O)cc2O)cc1 .
OUT: 364

IN: Now consider CCOc1ccccc1/C=C/C(=O)c1ccc(O)cc1O .
OUT: 365

IN: Now consider O=C(/C=C/c1ccc([N+](=O)[O-])cc1)c1ccc(O)cc1O .
OUT: 320

IN: Now consider O=C(/C=C/c1ccccc1F)c1ccc(O)cc1O .
OUT: 320

IN: Now consider O=C(/C=C/c1ccc(F)cc1)c1ccc(O)cc1O .
OUT: 346

IN: Now consider Cc1ccc(/C=C/C(=O)c2ccc(O)cc2O)cc1 .
OUT: 352

IN: Now consider O=C(/C=C/c1cccc(F)c1)c1ccc(O)cc1 .
OUT: 318

IN: Now consider O=C(/C=C/c1ccc2c(c1)OCO2)c1ccc(O)cc1 .
OUT: 355

IN: Now consider O=C(/C=C/c1ccccc1)c1ccc(O)cc1 .
OUT: 318

With those in mind, consider the next compound.
IN: I would be grateful if you could share the reported UVmax for O=C(/C=C/c1ccc(C(F)(F)F)cc1)c1ccc(O)cc1O .
OUT: 305

====

test summary: Ultraviolet light absorption maximum and absorbance in ethanol solution
Assay type: physicochemical
condition label: concentration of 10 μg/ml in an ethanol solution; 350 nm
Reported Absorbance 350 nm values are given for each entry in this list.

IN: I would be grateful if you could share the reported Absorbance 350 nm for Cc1ccc(/C=C/C(=O)c2ccc(O)cc2O)cc1 .
OUT: 0.90~1.00

IN: Now consider O=C(/C=C/c1ccc([N+](=O)[O-])cc1)c1ccc(O)cc1O .
OUT: 0.75~0.90

IN: Now consider O=C(/C=C/c1ccc(O)c(O)c1)c1ccc(O)cc1 .
OUT: 0.85~1.00

***
IN: I would be grateful if you could share the reported Absorbance 350 nm for O=C(/C=C/c1ccccc1)c1ccc(O)cc1O [Example 14, 2',4'-dihydroxychalcone] .
OUT: 0.60~0.70

IN: Now consider CCOc1ccc(/C=C/C(=O)c2ccc(O)cc2O)cc1 .
OUT: 0.60~0.75

IN: Now consider O=C(/C=C/c1cccc(F)c1)c1ccc(O)cc1 .
OUT: 0.45~0.55

IN: Now consider O=C(/C=C/c1ccc2c(c1)OCO2)c1ccc(O)cc1 .
OUT: 0.85~1.00

IN: Now consider O=C(/C=C/c1ccc(C(F)(F)F)cc1)c1ccc(O)cc1O .
OUT: 0.50~0.65

IN: Now consider O=C(/C=C/c1ccc(F)cc1)c1ccc(O)cc1O .
OUT: 0.60~0.70

IN: Now consider O=C(/C=C/c1cccc(F)c1)c1ccc(O)cc1O [Example 1, 2',4'-dihydroxy-3-fluoro-chalcone] .
OUT: 0.70~0.85

IN: Now consider O=C(/C=C/c1ccccc1F)c1ccc(O)cc1O .
OUT: 0.80~0.95

IN: Now consider O=C(/C=C/c1ccc(Cl)cc1)c1ccc(O)cc1O .
OUT: 1.15~1.30

IN: Now consider O=C(/C=C/c1ccccc1)c1ccc(O)cc1 .
OUT: 0.75~0.85

IN: Now consider CCOc1ccccc1/C=C/C(=O)c1ccc(O)cc1O .
OUT: 0.85~1.10

====

test summary: Ultraviolet light absorption maximum and absorbance in ethanol solution
Format: physicochemical
condition label: concentration of 10 μg/ml in an ethanol solution; at UVmax
Reported Absorbance UVmax values are given for each entry in this list.

IN: I would be grateful if you could share the reported Absorbance UVmax for O=C(/C=C/c1ccccc1)c1ccc(O)cc1 [Example 8] .
OUT: 1.80~2.10

====

Reported UVmax values are given for each entry in this list.
test summary: Ultraviolet light absorption maximum and absorbance in ethanol solution
Type: physicochemical
condition label: ultraviolet light absorption maximum
Entry rule: numbers only, all in nm.

Here are 3 molecules together with their reported answers.
IN: I would be grateful if you could share the reported UVmax for O=C(/C=C/c1cccc(F)c1)c1ccc(O)cc1O [Example 1, 2',4'-dihydroxy-3-fluoro-chalcone] .
OUT: 317

IN: Now consider O=C(/C=C/c1ccc(O)c(O)c1)c1ccc(O)cc1 .
OUT: 365

IN: Now consider O=C(/C=C/c1ccccc1)c1ccc(O)cc1O [Example 14, 2',4'-dihydroxychalcone] .
OUT: 306

***
IN: I would be grateful if you could share the reported UVmax for O=C(/C=C/c1ccc(Cl)cc1)c1ccc(O)cc1O .
OUT: 322

====

test summary: Ultraviolet light absorption maximum and absorbance in ethanol solution
Format: physicochemical
condition label: concentration of 10 μg/ml in an ethanol solution; 300 nm
measurement type: Absorbance 300 nm

IN: I would be grateful if you could share the reported Absorbance 300 nm for CCOc1ccccc1/C=C/C(=O)c1ccc(O)cc1O .
OUT: 0.55~0.70

IN: Now consider O=C(/C=C/c1ccc(Cl)cc1)c1ccc(O)cc1O .
OUT: 0.85~1.00

IN: Now consider O=C(/C=C/c1cccc(F)c1)c1ccc(O)cc1O [Example 1, 2',4'-dihydroxy-3-fluoro-chalcone] .
OUT: 0.70~0.85

IN: Now consider O=C(/C=C/c1ccc(F)cc1)c1ccc(O)cc1O .
OUT: 0.50~0.65

IN: Now consider Cc1ccc(/C=C/C(=O)c2ccc(O)cc2O)cc1 .
OUT: 0.40~0.55

====

Reported Absorbance UVmax values are given for each entry in this list.
test summary: Ultraviolet light absorption maximum and absorbance in ethanol solution
Format: physicochemical
condition label: concentration of 10 μg/ml in an ethanol solution; at UVmax

IN: I would be grateful if you could share the reported Absorbance UVmax for O=C(/C=C/c1ccccc1)c1ccc(O)cc1O [Example 14, 2',4'-dihydroxychalcone] .
OUT: 0.70~0.80

IN: Now consider O=C(/C=C/c1ccccc1F)c1ccc(O)cc1O [Example 3] .
OUT: 0.80~1.10

IN: Now consider O=C(/C=C/c1cccc(F)c1)c1ccc(O)cc1O [Example 1, 2',4'-dihydroxy-3-fluoro-chalcone] .
OUT: 0.80~0.95

***
IN: I would be grateful if you could share the reported Absorbance UVmax for O=C(/C=C/c1ccc([N+](=O)[O-])cc1)c1ccc(O)cc1O [Example 11] .
OUT: 0.80~0.90

IN: Now consider Cc1ccc(/C=C/C(=O)c2ccc(O)cc2O)cc1 [Example 9] .
OUT: 0.80~1.10

IN: Now consider O=C(/C=C/c1ccc(C(F)(F)F)cc1)c1ccc(O)cc1O [Example 5] .
OUT: 0.60~0.80

IN: Now consider CCOc1ccccc1/C=C/C(=O)c1ccc(O)cc1O [Example 7] .
OUT: 1.10~1.30

IN: Now consider O=C(/C=C/c1ccc(F)cc1)c1ccc(O)cc1O [Example 4] .
OUT: 0.55~0.70
